Give IC50 for every item shown.
- TESTED ON: CDK1/cyclinB (Homo sapiens, UniProt P06493)
- Sequence (P06493 whole entry): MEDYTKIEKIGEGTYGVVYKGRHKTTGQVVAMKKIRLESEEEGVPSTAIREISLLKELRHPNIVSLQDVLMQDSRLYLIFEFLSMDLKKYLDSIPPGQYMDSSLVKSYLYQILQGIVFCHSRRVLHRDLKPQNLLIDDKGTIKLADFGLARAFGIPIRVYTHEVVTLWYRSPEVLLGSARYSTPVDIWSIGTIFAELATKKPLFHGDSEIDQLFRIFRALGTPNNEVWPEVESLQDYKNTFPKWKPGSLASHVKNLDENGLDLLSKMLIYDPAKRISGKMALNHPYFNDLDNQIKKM
- Sequence (P14635 whole entry partner): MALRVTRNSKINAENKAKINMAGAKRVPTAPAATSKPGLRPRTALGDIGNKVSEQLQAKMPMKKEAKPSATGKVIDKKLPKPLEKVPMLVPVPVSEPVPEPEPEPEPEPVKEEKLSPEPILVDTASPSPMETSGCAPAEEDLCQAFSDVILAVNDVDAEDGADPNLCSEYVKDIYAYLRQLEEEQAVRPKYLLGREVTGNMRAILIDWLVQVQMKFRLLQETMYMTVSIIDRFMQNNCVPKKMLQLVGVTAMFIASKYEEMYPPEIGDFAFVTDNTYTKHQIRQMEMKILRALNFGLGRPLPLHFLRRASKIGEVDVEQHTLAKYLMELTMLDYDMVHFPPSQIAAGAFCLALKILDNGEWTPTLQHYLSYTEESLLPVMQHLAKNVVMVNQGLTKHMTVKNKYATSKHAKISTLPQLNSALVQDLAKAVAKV
- PROCEDURE SUMMARY: In vitro kinase TR-FRET assay CDK1/cyclinB
- Type: biochemical
- MEASUREMENT CONDITIONS: enzyme 0.3 nM, ATP 56 μM

The reported IC50 value, CDK1/cyclinB (Homo sapiens, UniProt P06493), for CC(C)NC(=O)O[C@@H]1CC[C@H](c2cc(Nc3ccc4c(c3)C(C)NS4(=O)=O)[nH]n2)C1 (some centres unmarked) reads < 50 nM

Entry CC(C)NC(=O)O[C@@H]1CC[C@H](c2cc(Nc3ccc4c(c3)N(C)S(=O)(=O)C4)n[nH]2)C1 , CDK1/cyclinB (Homo sapiens, UniProt P06493) data, IC50 value: 50 to 500 nM

Observed IC50, CDK1/cyclinB (Homo sapiens, UniProt P06493), CC(C)NC(=O)O[C@@H]1CC[C@H](c2cc(Nc3cccc4c3CN(C)S4(=O)=O)n[nH]2)C1 : 50 to 500 nM

Item CC(C)NC(=O)O[C@@H]1CC[C@H](c2cc(Nc3ccc4c(c3)CCC(=O)N4)[nH]n2)C1 was tested on CDK1/cyclinB (Homo sapiens, UniProt P06493); the reported IC50 is 50 to 500 nM

# lookup: CC(C)NC(=O)O[C@@H]1CC[C@H](c2cc(Nc3ccc(Cl)c4c3CCCS4(=O)=O)n[nH]2)C1 on CDK1/cyclinB (Homo sapiens, UniProt P06493), IC50 = 50 to 500 nM

Bench note, CDK1/cyclinB (Homo sapiens, UniProt P06493): entry CC(C)NC(=O)O[C@@H]1CC[C@H](c2cc(Nc3ccc4c(c3)OCCNS4(=O)=O)n[nH]2)C1 , its IC50 = 50 to 500 nM

Record Cc1c(Nc2ccc3c(c2)CS(=O)(=O)C3)n[nH]c1[C@H]1CC[C@@H](OC(=O)NC(C)C)C1 has CDK1/cyclinB (Homo sapiens, UniProt P06493) IC50 equal to > 1000 nM

IC50 of CC(C)NC(=O)O[C@H]1C[C@@H](c2cc(Nc3ccc4c(c3)CS(=O)(=O)C4)n[nH]2)C1 , assay on CDK1/cyclinB (Homo sapiens, UniProt P06493), is < 50 nM

Item CC(C)NC(=O)O[C@@H]1CC[C@H](c2cc(Nc3ccc4c(c3)CCS4(=O)=O)n[nH]2)C1 was tested on CDK1/cyclinB (Homo sapiens, UniProt P06493); the reported IC50 is 50 to 500 nM

Noted IC50 for CC(C)NC(=O)O[C@H]1CC[C@@H](c2cc(Nc3ccc4c(c3)CCNS4(=O)=O)n[nH]2)CC1 , tested on CDK1/cyclinB (Homo sapiens, UniProt P06493): < 50 nM

Short answer on CDK1/cyclinB (Homo sapiens, UniProt P06493) for CC(C)NC(=O)O[C@@H]1CC[C@H](c2cc(Nc3ccc4c(n3)CCS4(=O)=O)n[nH]2)C1 , IC50: 50 to 500 nM

Let me check: Cc1ccc(Nc2cc([C@H]3CC[C@@H](OC(=O)NC(C)C)C3)[nH]n2)c2c1S(=O)(=O)CC2 , system CDK1/cyclinB (Homo sapiens, UniProt P06493), measured IC50 is 50 to 500 nM

Test item CC(C)NC(=O)O[C@@H]1CC[C@H](c2cc(Nc3ccc4c(c3)C(=O)NC4=O)n[nH]2)C1 ; CDK1/cyclinB (Homo sapiens, UniProt P06493); reported IC50 was 50 to 500 nM

The measured IC50 that CC(C)NC(=O)O[C@H]1CC[C@@H](c2cc(Nc3ccc4c(c3)CS(=O)(=O)C4)n[nH]2)CC1 showed for CDK1/cyclinB (Homo sapiens, UniProt P06493) is < 50 nM

Observed IC50, CDK1/cyclinB (Homo sapiens, UniProt P06493), CC(C)NC(=O)O[C@@H]1CC[C@H](c2cc(Nc3ccc4c(c3)CC(F)(F)C4)n[nH]2)C1 : 50 to 500 nM

The observed IC50 for Cc1c([C@@H]2CC[C@H](OC(=O)NC(C)C)C2)n[nH]c1Nc1ccc2c(c1)CCS2(=O)=O (racemic) when tested with CDK1/cyclinB (Homo sapiens, UniProt P06493) stands at > 1000 nM

Form field, IC50 with CDK1/cyclinB (Homo sapiens, UniProt P06493), item CC(C)NC(=O)O[C@@H]1CC[C@H](c2cc(Nc3ccc4c(c3)CCCS4(=O)=O)n[nH]2)C1 : 50 to 500 nM
